Target: recombinant human prolyl oligopeptidase (PREP) (Homo sapiens (Human), UniProt P48147)
Sequence (P48147 whole entry): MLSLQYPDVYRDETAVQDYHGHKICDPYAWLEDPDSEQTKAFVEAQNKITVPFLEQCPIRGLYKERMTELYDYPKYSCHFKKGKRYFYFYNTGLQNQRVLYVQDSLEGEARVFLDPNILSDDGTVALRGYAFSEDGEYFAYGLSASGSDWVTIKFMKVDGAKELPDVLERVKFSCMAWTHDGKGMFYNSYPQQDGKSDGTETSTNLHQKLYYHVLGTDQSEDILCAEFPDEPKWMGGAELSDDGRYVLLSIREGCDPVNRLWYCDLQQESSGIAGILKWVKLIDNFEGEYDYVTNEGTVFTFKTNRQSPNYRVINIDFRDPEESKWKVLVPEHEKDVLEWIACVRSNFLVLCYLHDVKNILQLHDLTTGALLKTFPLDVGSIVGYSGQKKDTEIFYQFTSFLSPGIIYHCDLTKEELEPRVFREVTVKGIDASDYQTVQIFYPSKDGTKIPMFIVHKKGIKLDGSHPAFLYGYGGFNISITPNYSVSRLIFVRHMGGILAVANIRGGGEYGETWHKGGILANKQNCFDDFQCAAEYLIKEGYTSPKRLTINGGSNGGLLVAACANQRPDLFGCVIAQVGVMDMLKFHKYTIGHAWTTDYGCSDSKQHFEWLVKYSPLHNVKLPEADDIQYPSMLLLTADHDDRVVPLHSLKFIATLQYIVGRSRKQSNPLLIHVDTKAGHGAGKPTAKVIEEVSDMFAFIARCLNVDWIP
Assay: In vitro assay prolyl oligopeptidase IC50 (Example 21)
Format: biochemical
Note to self: IC50 under 50 nM means T, ties and anything higher get F.

Completed entries (count: 3):
compound="C[C@@H](NC(=O)c1ccc(CNC(=O)CN2CCN3CCN4CCN(CC2)CC(=O)[O][Ga]([O]C(=O)C3)[O]C(=O)C4)cc1)C(=O)N1CCC[C@H]1B(O)O [6555GA]" experimental_system="recombinant human prolyl oligopeptidase (PREP) (Homo sapiens (Human), UniProt P48147)" assigned_label=F
compound="C[C@@H](NC(=O)c1ccc(NNC(=O)CNC(=O)CN2CCN3CCN4CCN(CC2)CC(=O)[O][Lu]([O]C(=O)C3)[O]C(=O)C4)cc1)C(=O)N1CCC[C@H]1B(O)O [6487LU]" experimental_system="recombinant human prolyl oligopeptidase (PREP) (Homo sapiens (Human), UniProt P48147)" assigned_label=T
compound="C[C@@H](NC(=O)c1ccc(CNC(=O)CN2CCN3CCN4CCN(CC2)CC(=O)[O][Lu]([O]C(=O)C3)[O]C(=O)C4)cc1)C(=O)N1CCC[C@H]1B(O)O [6555LU]" experimental_system="recombinant human prolyl oligopeptidase (PREP) (Homo sapiens (Human), UniProt P48147)" assigned_label=F

Please examine the following record next.
QUERY: IC50 under 50 nM? Item: C[C@@H](NC(=O)c1ccc(NNC(=O)CCCCC[N+]2=C(/C=C/C3=C(Oc4ccc(S(=O)(=O)O)cc4)C(=C/C=C4/N(CCCCS(=O)(=O)O)c5ccc(S(=O)(=O)O)cc5C4(C)C)/CCC3)C(C)(C)c3cc(S(=O)(=O)O)ccc32)cc1)C(=O)N1CCC[C@H]1B(O)O
RESULT: F

====

Examples of molecules with documented pIC50 follow.
Target: recombinant human fibroblast activation protein (FAP) (Homo sapiens (Human), UniProt Q12884)
Sequence (Q12884 whole entry): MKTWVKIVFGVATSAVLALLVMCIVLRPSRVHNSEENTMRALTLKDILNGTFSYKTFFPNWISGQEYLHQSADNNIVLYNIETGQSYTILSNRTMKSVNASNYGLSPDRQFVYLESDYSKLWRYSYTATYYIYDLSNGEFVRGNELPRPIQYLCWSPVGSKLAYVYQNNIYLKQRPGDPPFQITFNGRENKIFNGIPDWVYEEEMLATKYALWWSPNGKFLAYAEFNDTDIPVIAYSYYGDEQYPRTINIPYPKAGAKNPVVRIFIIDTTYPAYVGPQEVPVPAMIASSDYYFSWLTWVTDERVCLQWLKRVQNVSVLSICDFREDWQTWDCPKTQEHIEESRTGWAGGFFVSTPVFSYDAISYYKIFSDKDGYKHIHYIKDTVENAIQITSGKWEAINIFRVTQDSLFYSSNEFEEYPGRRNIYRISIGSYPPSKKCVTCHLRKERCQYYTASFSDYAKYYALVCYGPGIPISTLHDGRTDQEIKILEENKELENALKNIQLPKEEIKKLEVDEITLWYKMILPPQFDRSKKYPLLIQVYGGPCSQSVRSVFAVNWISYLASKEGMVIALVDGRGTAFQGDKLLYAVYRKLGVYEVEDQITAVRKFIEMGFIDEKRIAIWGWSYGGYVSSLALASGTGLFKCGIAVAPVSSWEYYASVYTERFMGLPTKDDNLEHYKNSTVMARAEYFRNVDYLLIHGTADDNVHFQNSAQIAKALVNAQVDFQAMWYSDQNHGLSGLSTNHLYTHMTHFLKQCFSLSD
Experiment: In vitro assay fibroblast activation protein IC50 (Example 21)
Type: biochemical
Conditions: Z-Gly-Pro-AMC; 1.2 nM enzyme
Protocol: The purpose of this assay is to determine the IC50 of various inhibitors against recombinant human dipeptidyl peptidase IV (DPPIV), fibroblast activation protein (FAP) or prolyl oligopeptidase (PREP). The assays are conducted in the following steps: • 1 Dissolve the compound in DMSO to a final concentration of 100 mM. […] Read the fluorescence at λex: 380, λem: 460. […]
Square brackets hold non-standard residues; d marks the D form. Peptide text beside a SMILES is read from it. * marks the point of attachment. X3 = O=C1CN2CCN3CC(=O)O[C]4(C3)CN(CC(=O)*)CCN3CC(=O)O[C](C2)(C3)[Lu]4[O]1; X4 = O=C1CN2CCN3CC(=O)O[C]4(C3)CN(CC(=O)*)CCN3CC(=O)O[C](C2)(C3)[Ga]4[O]1; X5 = O=C(O)CN1CCN(CC(=O)O)CCN([C@H](CCC(=O)*)C(=O)O)CCN(CC(=O)O)CC1; DOTA = O=C(O)CN1CCN(CC(=O)O)CCN(CC(=O)*)CCN(CC(=O)O)CC1; Pyrrolidine(2S-CN,4,4-F2) = N#C[C@@H]1CC(F)(F)CN1*; boroPro = OB(O)[C@@H]1CCCN1*
Quick note: pIC50 means taking -log10 of the concentration in moles per liter.

molecule="CC(C)[C@H](NC(=O)CNC(=O)CNC(=O)CNC(=O)CN1CCN(CC(=O)O)CCN(CC(=O)O)CCN(CC(=O)O)CC1)C(=O)N[C@H](C)C(=O)N1CCC[C@H]1B(O)O [compound 6834] ({DOTA}-GGGV[dA]-boroPro)" recorded_result=7.57
molecule=C[C@@H](NC(=O)[C@H]1CC[C@H](CNC(=O)CN2CCN3CCN4CCN(CC2)CC(=O)[O][Lu]([O]C(=O)C3)[O]C(=O)C4)CC1)C(=O)N1CCC[C@H]1B(O)O recorded_result=7.85
molecule="CC(C)[C@H](NC(=O)CCCCNC(=O)CN1CCN2CCN3CCN(CC1)CC(=O)[O][Ga]([O]C(=O)C2)[O]C(=O)C3)C(=O)N[C@H](C)C(=O)N1CCC[C@H]1B(O)O [6940GA, DOTA(Ga)-PEN-Val-Dala-boroPro]" recorded_result=6.96

QUERY: Look up pIC50 for this molecule: CC(C)[C@H](NC(=O)CCCCNC(=O)CN1CCN(CC(=O)O)CCN(CC(=O)O)CCN(CC(=O)O)CC1)C(=O)N[C@H](C)C(=O)N1CCC[C@H]1B(O)O
RESULT: 8.28

QUERY: Look up pIC50 for this molecule: CC(C)[C@H](NC(=O)CNC(=O)CNC(=O)CN1CCN2CC(=O)O[C]3(CN4CCN5CC(=O)O[C](C1)(C5)[Lu]3[O]C(=O)C4)C2)C(=O)N[C@H](C)C(=O)N1CCC[C@H]1B(O)O (stereo partly drawn) [6522LU] (X3-GGV[dA]-boroPro)
RESULT: 7.59

QUERY: Look up pIC50 for this molecule: CC(C)[C@H](NC(=O)CNC(=O)CNC(=O)CN1CCN2CC(=O)O[C]3(CN4CCN5CC(=O)O[C](C1)(C5)[Ga]3[O]C(=O)C4)C2)C(=O)N[C@H](C)C(=O)N1CCC[C@H]1B(O)O (stereo partly drawn) [6522GA-02] (X4-GGV[dA]-boroPro)
RESULT: 6.24

QUERY: Look up pIC50 for this molecule: CC(C)[C@H](NC(=O)CNC(=O)CNC(=O)CNC(=O)CC[C@H](C(=O)O)N1CCN(CC(=O)O)CCN(CC(=O)O)CCN(CC(=O)O)CC1)C(=O)N[C@H](C)C(=O)N1CCC[C@H]1B(O)O [6808D] (X5-GGGV[dA]-boroPro)
RESULT: 7.94

QUERY: Look up pIC50 for this molecule: CC(C)[C@H](NC(=O)CNC(=O)CNC(=O)CN1CCN(CC(=O)O)CCN(CC(=O)O)CCN(CC(=O)O)CC1)C(=O)N[C@H](C)C(=O)N1CC(F)(F)C[C@H]1C#N [compound 6790] ({DOTA}-GGV[dA]-{Pyrrolidine(2S-CN,4,4-F2)})
RESULT: 6.97

====

Target: recombinant human prolyl oligopeptidase (PREP) (Homo sapiens (Human), UniProt P48147)
Assay: In vitro assay prolyl oligopeptidase IC50 (Example 21)
Type: biochemical
Examples of compounds with documented pIC50 follow.
Quick note: pIC50 means taking -log10 of the concentration in moles per liter.

Take a look at these entries with their results.
compound="C[C@@H](NC(=O)c1ccc(NNC(=O)CCCNC(=O)CN2CCN3CCN4CCN(CC2)CC(=O)[O][Ga]([O]C(=O)C3)[O]C(=O)C4)nc1)C(=O)N1CCC[C@H]1B(O)O [6489 GA]" measure=pIC50 recorded_result=5.47
compound="C[C@@H](NC(=O)c1ccc(NNC(=O)CCCCCNC(=O)CN2CCN3CCN4CCN(CC2)CC(=O)[O][Lu]([CH2]C(=O)C3)[O]C(=O)C4)nc1)C(=O)N1CCC[C@H]1B(O)O [6958LU]" measure=pIC50 recorded_result=6.81
compound="C[C@@H](NC(=O)c1ccc(NNC(=O)CCCCCNC(=O)CN2CCN3CCN4CCN(CC2)CC(=O)[O][Lu]([O]C(=O)C3)[O]C(=O)C4)nc1)C(=O)N1CCC[C@H]1B(O)O [6609LU]" measure=pIC50 recorded_result=7.22

QUERY: Look up pIC50 for this compound: C[C@@H](NC(=O)c1ccc(NC(=O)CN2CCN3CCN4CCN(CC2)CC(=O)[O][Ga]([O]C(=O)C3)[O]C(=O)C4)cc1)C(=O)N1CCC[C@H]1B(O)O [6572GA]
RESULT: 6.63

QUERY: Look up pIC50 for this compound: C[C@@H](NC(=O)c1ccc(NNC(=O)CCCCC[N+]2=C(/C=C/C3=C(Oc4ccc(S(=O)(=O)O)cc4)C(=C/C=C4/N(CCCCS(=O)(=O)O)c5ccc(S(=O)(=O)O)cc5C4(C)C)/CCC3)C(C)(C)c3cc(S(=O)(=O)O)ccc32)nc1)C(=O)N1CCC[C@H]1B(O)O [4613 B]
RESULT: 6.41

QUERY: Look up pIC50 for this compound: C[C@@H](NC(=O)c1ccc(CNC(=O)CN2CCN3CCN4CCN(CC2)CC(=O)[O][Lu]([O]C(=O)C3)[O]C(=O)C4)nc1)C(=O)N1CCC[C@H]1B(O)O [6556LU]
RESULT: 6.05

QUERY: Look up pIC50 for this compound: C[C@@H](NC(=O)c1ccc(NNC(=O)CNC(=O)CN2CCN3CCN4CCN(CC2)CC(=O)[O][Ga]([O]C(=O)C3)[O]C(=O)C4)cc1)C(=O)N1CCC[C@H]1B(O)O [6487GA]
RESULT: 5.92

QUERY: Look up pIC50 for this compound: C[C@@H](NC(=O)c1ccc(CNC(=O)CCCNC(=O)CN2CCN(CC(=O)O)CCN(CC(=O)O)CCN(CC(=O)O)CC2)cc1)C(=O)N1CCC[C@H]1B(O)O [compound 6591]
RESULT: 6.99
